molecular target: human orexin 1 receptors (Homo sapiens (Human), UniProt O43613); experiment: Calcium Accumulation in Cells (FLIPR), antagonism of orexin A; details: antagonism of orexin A, Cheng-Prusoff corrected; read-out: FLIPR hOx1R Ki
Sequence (O43613 whole entry): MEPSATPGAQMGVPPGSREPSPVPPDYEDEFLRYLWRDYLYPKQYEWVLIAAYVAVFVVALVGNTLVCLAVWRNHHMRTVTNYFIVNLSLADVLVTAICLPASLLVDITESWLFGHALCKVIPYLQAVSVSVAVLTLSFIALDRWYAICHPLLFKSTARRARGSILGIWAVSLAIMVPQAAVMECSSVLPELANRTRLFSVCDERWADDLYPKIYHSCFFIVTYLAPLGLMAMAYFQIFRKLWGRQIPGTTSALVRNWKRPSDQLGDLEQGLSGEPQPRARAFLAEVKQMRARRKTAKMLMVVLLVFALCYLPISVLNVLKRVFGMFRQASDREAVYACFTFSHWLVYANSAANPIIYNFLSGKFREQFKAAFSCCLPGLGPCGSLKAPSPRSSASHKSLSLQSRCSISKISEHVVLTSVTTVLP
QUANTITY KIND: pKi
Numbers only, as −log10 of the molar value.

| COMPOUND | pKi |
| --- | --- |
| Cc1cc(OCC(=O)N[C@H]2CCc3cc(OC(C)C)ccc32)nc2c1c(C1CC1)nn2C | 6.90 |

Fill in pKi for each of the 2 compounds listed.
1. Cc1nn(C)c(C)c1C(C)NC(=O)COc1cc(C(F)(F)F)c2c(C3CC3)nn(C)c2n1 (centres unmarked)
2. COc1ccccc1-c1nn(C)c2nc(OCC(=O)N[C@@H](C)c3ccccc3)cc(C(F)(F)F)c12

Completion:
1: 6.17; 2: 7.82

# batch: return pKi for each of the 4 compounds below
1. Cc1ccc([C@H](C)NC(=O)COc2cc(C)c3c(-c4cccc(C)n4)nn(C)c3n2)cc1
2. Cc1cc2c(cn1)[C@@H](NC(=O)COc1cc(C)c3c(C4CC4)nn(C)c3n1)CC2
3. CC(NC(=O)COc1cc(C(F)(F)F)c2c(-c3ccccc3)nn(C)c2n1)c1ccncc1 (centres unmarked)
4. COc1ccc(C(C)NC(=O)COc2cc(C)c3c(-c4cc(C)oc4C)nn(C)c3n2)cn1 (centres unmarked)

Completion:
7.34
6.11
5.68
6.07

For Cc1nn(C)c(C)c1C(C)NC(=O)COc1cc(C(F)F)c2c(-c3ccccc3)nn(C)c2n1 (centres unmarked) the compound record lists pKi as 7.20

###

Kindly state Ki for each of the entries shown.
molecular target: human orexin 1 receptors (Homo sapiens (Human), UniProt O43613); assay: Calcium Accumulation in Cells (FLIPR), antagonism of orexin A; settings: antagonism of orexin A, Cheng-Prusoff corrected; read-out: FLIPR hOx1R Ki
Please answer in the form of a number followed by its unit of measurement.

The following molecules have reported results that may help.
| MOLECULE | SUBJECT OF TEST | DATA VALUE |
| --- | --- | --- |
| COc1ccc(C(C)NC(=O)COc2cc(C(F)F)c3c(-c4ccccc4)nn(C)c3n2)cn1 (centres unmarked) | human orexin 1 receptors (Homo sapiens (Human), UniProt O43613) | 175 nM |
| Cc1ccc2c(n1)CC[C@@H]2NC(=O)COc1cc(C)c2c(C3CC3)nn(C)c2n1 | human orexin 1 receptors (Homo sapiens (Human), UniProt O43613) | 109 nM |
| Cc1cc(OCC(=O)NC(C)c2cn3ccsc3n2)nc2c1c(C1CC1)nn2C (centres unmarked) | human orexin 1 receptors (Homo sapiens (Human), UniProt O43613) | 1560 nM |

// each listed molecule needs a value for Ki
1. Cc1ccc([C@H](C)NC(=O)COc2ccc3c(C4CC4)nn(C)c3n2)cc1
2. C[C@H](NC(=O)COc1cc(C(F)(F)F)c2c(C3CC3)nn(C)c2n1)c1ccccc1
3. C[C@H](NC(=O)COc1cc(C(F)(F)F)c2c(-c3cccc(Cl)c3)nn(C)c2n1)c1ccccc1
4. Cc1ccc2c(c1)CCC2NC(=O)COc1cc(C)c2c(C3CC3)nn(C)c2n1 (centres unmarked)
5. Cc1cc(OCC(=O)NC(C)CCc2ccccc2)nc2c1c(-c1ccccc1)nn2C (centres unmarked)

Completion:
["1100 nM", "730 nM", "66 nM", "495 nM", "456 nM"]

###

molecular target: human orexin 1 receptors (Homo sapiens (Human), UniProt O43613); experiment: Calcium Accumulation in Cells (FLIPR), antagonism of orexin A; conditions: antagonism of orexin A, Cheng-Prusoff corrected; read-out: FLIPR hOx1R Ki
pKi: −log10 of the molar value.
Outcome: fulfilled for pKi of at least 7; not fulfilled for anything lower.

Reference set (3 entries):
| COMPOUND | CLASSIFICATION |
| --- | --- |
| COc1ccc(CNC(=O)COc2cc(C(F)(F)F)c3c(-c4ccccc4)nn(C)c3n2)cc1 | not fulfilled |
| Cn1nc(-c2ccccc2)c2c(C(F)(F)F)cc(OCC(=O)NC3CCCc4ccccc43)nc21 (stereo not shown) | not fulfilled |
| Cc1ccc2c(n1)CC[C@@H]2NC(=O)COc1cc(C(F)(F)F)c2c(-c3cc(C)oc3C)nn(C)c2n1 | fulfilled |

Prompt: For this compound, is measured pKi 7 or higher? Cc1ccc([C@H](C)NC(=O)COc2cc(C)c3c(-c4cscn4)nn(C)c3n2)cc1
Completion: fulfilled

Prompt: Does the compound Cc1ccc(C(C)NC(=O)COc2cc(C(F)F)c3c(-c4ccccc4)nn(C)c3n2)cn1 (stereo not shown) have recorded pKi that is 7 or more?
Completion: not fulfilled

Prompt: Please tell me: is the compound Cc1ccc([C@H](C)NC(=O)COc2cc(C)c3c(-c4cnn(C)c4)nn(C)c3n2)cc1 at or over 7 in terms of pKi?
Completion: not fulfilled

Prompt: Evaluate Cc1ccc([C@H](C)NC(=O)COc2cc(C)c3c(-c4cncn4C)nn(C)c3n2)cc1 : pKi at minimum 7?
Completion: not fulfilled

###

Provide the reported pKi of each item.
biological target: human orexin 2 receptors (Homo sapiens (Human), UniProt O43614); assay: Calcium Accumulation in Cells (FLIPR), antagonism of orexin A; conditions: antagonism of orexin A, Cheng-Prusoff corrected; read-out: FLIPR hOx2R Ki
Sequence (O43614 whole entry): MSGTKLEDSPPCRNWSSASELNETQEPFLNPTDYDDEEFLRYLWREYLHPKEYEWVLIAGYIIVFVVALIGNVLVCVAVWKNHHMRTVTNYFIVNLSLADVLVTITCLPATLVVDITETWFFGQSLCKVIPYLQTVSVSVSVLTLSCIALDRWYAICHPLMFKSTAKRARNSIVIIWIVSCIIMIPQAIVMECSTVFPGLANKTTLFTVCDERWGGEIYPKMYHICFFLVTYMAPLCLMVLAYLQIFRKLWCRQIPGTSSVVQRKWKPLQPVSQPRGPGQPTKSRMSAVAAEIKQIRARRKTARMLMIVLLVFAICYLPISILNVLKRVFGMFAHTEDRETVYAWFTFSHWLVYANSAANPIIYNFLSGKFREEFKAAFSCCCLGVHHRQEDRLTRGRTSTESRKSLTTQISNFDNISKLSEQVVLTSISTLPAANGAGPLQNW
Answers are plain numbers, as −log10 of the molar value.

Completed entries (count: 6):
| COMPOUND | QUANTITY KIND | DATA VALUE |
| --- | --- | --- |
| Cn1nc(-c2ccccc2F)c2c(C(F)(F)F)cc(OCC(=O)N[C@H]3CCc4ccccc43)nc21 | pKi | 7.44 |
| COc1ccc(-c2nn(C)c3nc(OCC(=O)N[C@@H](C)c4ccccc4)cc(C(F)(F)F)c23)cc1 | pKi | 7.12 |
| Cn1nc(-c2ccccc2)c2c(C(F)(F)F)cc(OCC(=O)NCc3cccc(F)c3)nc21 | pKi | 5.79 |
| COc1ccc([C@H](C)NC(=O)COc2cc(C(F)(F)F)c3c(-c4cc(C)oc4C)nn(C)c3n2)cc1 | pKi | 8.15 |
| CCCNC(=O)COc1cc(C(F)(F)F)c2c(-c3ccccc3)nn(C)c2n1 | pKi | 6.12 |
| Cc1nc(C(C)NC(=O)COc2cc(C(F)(F)F)c3c(-c4ccccc4)nn(C)c3n2)c(C)s1 (stereo not shown) | pKi | 5.54 |

Shift focus to the following entry.
Noted for Cc1ccc(C(C)NC(=O)COc2cc(C(F)(F)F)c3c(-c4ccccc4)nn(C)c3n2)o1 (stereo not shown) : its pKi reads 6.39

###

molecular target: human orexin 1 receptors (Homo sapiens (Human)); test: Calcium Accumulation in Cells (FLIPR), antagonism of orexin A; details: antagonism of orexin A, Cheng-Prusoff corrected; read-out: FLIPR hOx1R Ki
QUANTITY KIND: Ki (nM)
Numbers only, in nM.

| COMPOUND | UNIT OF MEASUREMENT | Ki |
| --- | --- | --- |
| C[C@H](NC(=O)CNc1cc(C(F)(F)F)c2c(-c3ccccc3)nn(C)c2n1)c1ccccc1 [Example 3.1] | nM | 357 |
| COc1ccc(C(C)(C)NC(=O)COc2cc(C)c3c(C4CC4)nn(C)c3n2)cc1 [Example 6.62] | nM | 626 |
| COc1ccccc1C(C)NC(=O)COc1cc(C(F)(F)F)c2c(-c3ccccc3)nn(C)c2n1 (stereo not shown) [Example 1.44] | nM | 274 |

Please examine the following record next.
# compound C[C@H](NC(=O)COc1cc(C(F)(F)F)c2c(-c3ccccc3)cn(C)c2n1)c1ccccc1 [Example 6.77] ; its Ki = 148

###

Exercise: for every item that follows, state its recorded pKd.
biological target: human orexin 2 receptors (Homo sapiens (Human), UniProt O43614); test: Radioligand Binding Assay II ([3H]-SB649868 competition, cell membranes); conditions: read-out: binding II hOx2R Kd
One number for each entry, as −log10 of the molar value.

| COMPOUND | pKd |
| --- | --- |
| Cc1cc(OCC(=O)NC(C)c2ccc3c(ccn3C)c2)nc2c1c(C1CC1)nn2C (stereo not drawn) [Example 6.59] | 6.79 |

State recorded pKd for all listed compounds.
1. Cc1ccc(C(C)(C)NC(=O)COc2cc(C)c3c(C4CC4)nn(C)c3n2)cc1 [Example 6.6]
2. COc1ccc(C(C)NC(=O)COc2cc(C(F)(F)F)c3c(C4CC4)nn(C)c3n2)cn1 (stereo not drawn) [Example 6.14]

Completion:
1: 6.86; 2: 6.85

###

biological target: human orexin 1 receptors (Homo sapiens (Human), UniProt O43613); assay: Calcium Accumulation in Cells (FLIPR), antagonism of orexin A; type: cell-based; details: measured at a concentration of 10 μM of compound; read-out: FLIPR hOx1R % inhibition value
For each record, write down the corresponding inhibition at 10 µM.
Give bare numbers, in %.

| COMPOUND | UNIT OF MEASUREMENT | DATA VALUE |
| --- | --- | --- |
| Cn1nc(-c2ccccc2)c2c(C(F)(F)F)cc(OCC(=O)NC3CCC3)nc21 [Example 1.54] | % | 25 |
| Cc1cc(OCC(=O)NCc2ccc(Cl)nc2)nc2c1c(C1CC1)nn2C [Example 7.14] | % | 31 |
| Cc1ccc([C@H](C)NC(=O)COc2nc3c(cc2C)c(C2CC2)nn3C)cc1 [Example 6.60] | % | 11 |
| CCn1cnnc1C(C)NC(=O)COc1cc(C(F)(F)F)c2c(-c3ccccc3)nn(C)c2n1 (centres unmarked) [Example 1.35] | % | 22 |

Here is another compound to look at.
Query COc1ccc(CNC(=O)COc2cc(C)c3c(C4CC4)nn(C)c3n2)cc1 [Example 6.67] yields inhibition at 10 µM of 29
